The reported measurements were obtained from patent US6368631B1.

Experimental Protocol: In vivo evaluation of the complex of nanoparticles and PSP: plasma PSP concentration and pharmacokinetic parameters after duodenal administration
Condition Context: male, SD, rats, 9.4 mg in terms of PSP per rat, n=6, mean ± S.D., read-out: MRT0-24 h
Measurement Kind: MRT last (h)
Could you give me the number in h? Just the number is fine.

Task item: Give MRT last for O=S1(=O)OC(c2ccc(O)cc2)(c2ccc(O)cc2)c2ccccc21 [Aq. PSP-Na sol. (control prep.), phenolsulfonphthalein]
Reply: 4.57

====

Experimental Protocol: In vivo evaluation of the complex of nanoparticles and PSP: plasma PSP concentration and pharmacokinetic parameters after duodenal administration
Condition Context: male, SD, rats, 9.4 mg in terms of PSP per rat, n=6, mean ± S.D.
Measurement Kind: Cmax (ng/mL)
Could you give me the number in ng/mL? Just the number is fine.

Task item: Give Cmax for O=S1(=O)OC(c2ccc(O)cc2)(c2ccc(O)cc2)c2ccccc21 [Aq. PSP-Na sol. (control prep.), phenolsulfonphthalein]
Reply: 2000
